Where do the numbers come from? From ChEMBL document CHEMBL1961873.

inhibition: recorded values
Assayed Target: Serine/threonine-protein kinase B-raf (Homo sapiens);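 also: mean percent inhibition of BRAF kinase activity, from the GSK PKIS kinase inhibitor screening set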
Assay Conditions: at 0.1 µM
Value expressed in %; do not type the unit.

[
  {
    "Compound": "COc1cc(C=NNc2ncnc3c2cnn3-c2ccccc2)ccc1O",
    "Assayed Target": "Serine/threonine-protein kinase B-raf (Homo sapiens)",
    "inhibition (%)": 2.6
  },
  {
    "Compound": "COc1ccc(-c2nn3ncccc3c2-c2ccnc(Nc3ccc(Cl)c(C(F)(F)F)c3)n2)cc1",
    "Assayed Target": "Serine/threonine-protein kinase B-raf (Homo sapiens)",
    "inhibition (%)": 3.94
  },
  {
    "Compound": "COc1cc2ncn(-c3cc(O[C@@H](C)c4ccccc4Cl)c(C(N)=O)s3)c2cc1OC",
    "Assayed Target": "Serine/threonine-protein kinase B-raf (Homo sapiens)",
    "inhibition (%)": 5.9
  },
  {
    "Compound": "COc1ccc2cc(-c3c(-c4ccncc4)nc(-c4ccc([S+](C)[O-])cc4)n3C)ccc2c1 (stereo not given)",
    "Assayed Target": "Serine/threonine-protein kinase B-raf (Homo sapiens)",
    "inhibition (%)": 3.84
  }
]

Let us examine a further case.
Documented inhibition of `COc1cc2ncn(-c3cc(O[C@H](C)c4ccccc4Cl)c(C(N)=O)s3)c2cc1OC` : 4.31
